experiment: Volume of distribution at steady state in Sprague-Dawley rat at 5 mg/kg, iv or po by UHPLC-LC/MS analysis; format: ADME, organism-based; details: in vivo, read-out: Vdss

Test smiles | Vd
N#Cc1c(N)nc(N)nc1N1CC2(CC2)C[C@H]1c1nc2cccc(Cl)c2c(=O)n1-c1ccccc1 | 3.9 L/kg

----------
pIC50: −log10 of the molar value.
Entries with their measured pIC50, system PI3-kinase p110-alpha/p85-alpha (Homo sapiens):

Test smiles | Tested system | Censor symbol | pIC50
N#Cc1c(N)nc(N)nc1N1CC2(CC2)C[C@H]1c1nc2cccc(Cl)c2c(=O)n1-c1ccccc1 | PI3-kinase p110-alpha/p85-alpha (Homo sapiens) | = | 6.66
O=c1c2c(Cl)cccc2nc([C@@H]2CC3(CC3)CN2c2ncnc3[nH]cnc23)n1-c1ccccc1 | PI3-kinase p110-alpha/p85-alpha (Homo sapiens) | < | 5.30
